# Test system: PC-3
# procedure.text: NCI tumour cell line growth inhibition, 48 h
Active and inactive are the calls of the source. Cut-off read from the data, not from the text of the source: active = GI50 up to about 1.1 µM and inactive = higher.
Write down one outcome, taken from yes (active), no (inactive)

Example cases with answers are listed next.
1. COc1cc(Cn2c3c(c4c(C(=O)NCCN(C)C)c(O)ccc42)C(=O)c2ccccc2C3=O)cc(OC)c1 :: no
2. CCC(C)SC1SCC2C(=O)N(C)C3(CC3C)C(=O)OCC(NC(=O)c3nc4ccccc4cc3O)C(=O)NC(C)C(=O)N(C)C1C(=O)N(C)C1(CC1C)C(=O)OCC(NC(=O)c1nc3ccccc3cc1O)C(=O)NC(C)C(=O)N2C (stereo not drawn) :: yes
3. COc1cc2c(c(OC)c1OC)C(=O)CC2N (stereo not drawn) :: no

Query: State the result this test recorded for OC1OC(c2ccc[nH]2)C(F)(F)C(F)(F)C1(F)F (stereo not drawn) .
Result: no

Query: Can you handle COC(=O)C(CC12CC3CC(CC(C3)C1)C2)NC(=O)C(N)CC(=O)O (stereo not drawn) next?
Result: no

Query: Can you handle CC[N+]1(C)CCC(O)(/C=C/c2ccccc2)C(C(=O)/C=C/c2ccccc2)C1 (stereo not drawn) next?
Result: no

Query: Can you handle COc1ccc(-c2c3c(n(C4OC(COC(C)=O)C(OC(C)=O)C(OC(C)=O)C4OC(C)=O)c(=S)c2C#N)CCC3)cc1 (stereo not drawn) next?
Result: no

Query: Can you handle "COc1ccc(/C=C\c2cc(OC)c(OC)c(OC)c2)cc1OCC(=O)O" next?
Result: no

----------
Please provide measured GI50 for the entries that follow.
# Test system: TK-10
# procedure.text: NCI tumour cell line growth inhibition, 48 h
Active and inactive are the calls of the source. Rule as the data show it: active = GI50 up to about 1.1 µM and inactive = higher.

1) CNC1=CC(=O)C2=C(C1=O)[C@H]1CC[C@]3(C)C(=O)CC[C@H]3[C@@H]1CC2 :: 62.4 µM (inactive)
2) CCc1cc2c(Nc3ccccc3)c3c(nc2s1)CCCC3 :: > 100 µM (inactive)
3) CN1C(=O)C(Cl)(C(Cl)(Cl)S(=O)(=O)O)C(=O)c2ccccc21.c1ccncc1 (stereo not given) :: > 100 µM (inactive)

Dear colleague, could you please provide GI50 for the compounds listed below?
1. CS(=O)(=O)OCCn1c(=O)n(CCOS(C)(=O)=O)c(=O)n(CCOS(C)(=O)=O)c1=O
2. Nc1nc(Cl)cc(NCC2(CO)CC(CCc3ccccc3)C2)n1 (stereo not given)
3. COc1cc(CC2c3cc(OC)c(OC)cc3CCN2C)c(Oc2cc3c(cc2OC)-c2c(O)c(OC)cc4c2C(C3)N(C)CC4)cc1OC (stereo not given)

Result:
["> 100 µM (inactive)", "> 70.5 µM (inactive)", "22 µM (inactive)"]

Dear colleague, could you please provide GI50 for the compounds listed below?
1. COC1O[C@@H]2CCN3C(=O)[C@@H](OC(=O)c4ccc([N+](=O)[O-])cc4)[C@H]1C23 (stereo not given in full)
2. COC(=O)C(CC12CC3CC(CC(C3)C1)C2)NC(=O)C(N)CC(=O)O (stereo not given)
3. CCCCCNC(=O)c1c(O)[nH]c(=S)[nH]c1=O
4. Nc1nccc2c1ncn2[C@H]1C[C@H](O)[C@@H](CO)O1

Result:
> 100 µM (inactive)
> 100 µM (inactive)
> 100 µM (inactive)
> 100 µM (inactive)

Data credit: ChEMBL document CHEMBL1201862
